From: PubChem BioAssay (NCI)

Test system: OVCAR-4 ovarian
Assay: NCI-60 one-dose screen, 48 h (100 = growth as untreated, 0 = no growth, -100 = all killed)
Details: 10 µM unless noted
This is part of a sample that, as a whole, favours compounds with a hit. Of some 83,000 tested, about 20% had one in any assay.
MEASURE: growth (%)
Unit % implied. Number only.

CCN(CCO)C(Cc1ccccc1)c1ccccc1 (configuration not stated) :: 102

INPUT: Which growth reading was recorded for the compound "COc1ccc2nc(NC(=O)COc3cc(/C=C\c4cc(OC)c(OC)c(OC)c4)ccc3OC)sc2c1" ?
OUTPUT: 49

INPUT: How about "CCOC(=O)[C@@H](C)C[C@H](Cc1ccccc1)NC(=O)c1csc([C@@H](C[C@H](C(C)C)N(C)C(=O)CNC(=O)[C@H]2CCCCN2C)OC(C)=O)n1" ?
OUTPUT: 46.4

INPUT: Try this compound too: "COc1ccc(N(CC(=O)NCCC[Te]c2ccccc2)C(=O)CCSC2=C(C)C(=O)c3ccccc3C2=O)cc1"
OUTPUT: 20.2

INPUT: Same read-out for "CC[C@H](C)[C@H](NC(=O)N[C@@H](C)c1ccccc1)C(=O)N(C)[C@H](C[C@@H](OC(C)=O)c1nc(C(=O)N[C@@H](Cc2ccccc2)C[C@H](C)C(=O)OC)cs1)C(C)C" ?
OUTPUT: 37.1

INPUT: Another compound to check: O=C1C2CC=CCC2C(=O)N1SC(Cl)(Cl)Cl (configuration not stated)
OUTPUT: 99.9

INPUT: Entry "O=C([O][Hg][c]1ccccc1)c1ccccc1" please
OUTPUT: -1.64

INPUT: Further, for "C[C@]12CCc3sc(-c4cccc(F)c4)nc3C1=CC[C@@H]1[C@@H]2CC[C@]2(C)C(=O)CC[C@@H]12" ?
OUTPUT: 65.1

INPUT: Here is the next compound: "Cc1cc(-c2nc3cc(F)ccc3[se]2)cc(F)c1N"
OUTPUT: 63.3

INPUT: Please answer likewise for "c1cnc2[nH]cc(-c3csc(-c4cn(CCCCN5CCCCC5)c5ccccc45)n3)c2c1"
OUTPUT: 83.8

INPUT: Try the compound CCC1CN1CCCCN1CC1CC (configuration not stated)
OUTPUT: 102

INPUT: Try the compound "Nc1c(F)cc(-c2nc3cc(F)ccc3[se]2)cc1F"
OUTPUT: 48.9

INPUT: Moving on to the next compound: "COc1ccc2c(c1)c(-c1nc(-c3cn(C)c4ncccc34)cs1)cn2CCN1CCOCC1"
OUTPUT: 42

INPUT: Queued: "COC(=O)[C@@H](C)C[C@H](Cc1ccc2ccccc2c1)NC(=O)c1csc([C@@H](C[C@H](C(C)C)N(C)C(=O)[C@@H](NC(=O)[C@H]2CCCCN2C)C(C)C)OC(C)=O)n1"
OUTPUT: 53

INPUT: What do we get for "COC(=O)CC[C@H](Cc1ccccc1)NC(=O)c1csc([C@@H](C[C@H](C(C)C)N(C)C(=O)[C@@H](NC(=O)[C@H]2CCCCN2C)C(C)C)OC(C)=O)n1" ?
OUTPUT: 52.3

INPUT: Also check "Fc1c[c-]c(-c2ccccn2)c(F)c1.[CH3-].[Pt+2].c1ccc([PH+](c2ccccc2)c2ccccn2)cc1"
OUTPUT: -2.32

INPUT: # iterate: O=C1C2C(C(=O)[N]1[Hg][c]1cccs1)C1(Cl)C(Cl)=C(Cl)C2(Cl)C1(Cl)Cl (configuration not stated)
OUTPUT: 37.3
